Assay: Fluorescence excitation and emission spectra in solvents of different polarity
Assay type: physicochemical
Settings: CH2Cl2, 10 μM
Exercise: for every item that follows, state its recorded λex.
Numbers only, in nm.

O=c1[nH]c(=S)n(CCOCCNc2ccc([N+](=O)[O-])c3nonc23)c2nc[nH]c12 ... 452
O=c1[nH]c(=S)n(CCNc2ccc([N+](=O)[O-])c3nonc23)c2nc[nH]c12 ... 452
CN(C)c1ccc2c3c(cccc13)C(=O)N(CCn1c(=S)[nH]c(=O)c3[nH]cnc31)C2=O ... 415
CN(C)S(=O)(=O)c1ccc(NCCOCCn2c(=S)[nH]c(=O)c3[nH]cnc32)c2nonc12 ... 420
CN(C)S(=O)(=O)c1ccc(NCCn2c(=S)[nH]c(=O)c3[nH]cnc32)c2nonc12 ... 417

For "CN(C)c1ccc2c3c(cccc13)C(=O)N(CCOCCn1c(=S)[nH]c(=O)c3[nH]cnc31)C2=O" the compound record lists λex as 415

---

Test: Fluorescence excitation and emission spectra in solvents of different polarity
Format: physicochemical
Settings: PBS (pH 7.4), 10 μM
experimental.readout: λex

CN(C)S(=O)(=O)c1ccc(NCCOCCn2c(=S)[nH]c(=O)c3[nH]cnc32)c2nonc12 ... 435 nm
CN(C)c1ccc2c3c(cccc13)C(=O)N(CCOCCn1c(=S)[nH]c(=O)c3[nH]cnc31)C2=O ... 446 nm
CN(C)c1ccc2c3c(cccc13)C(=O)N(CCn1c(=S)[nH]c(=O)c3[nH]cnc31)C2=O ... 457 nm
O=c1[nH]c(=S)n(CCNc2ccc([N+](=O)[O-])c3nonc23)c2nc[nH]c12 ... 473 nm

For each entry beneath this line, provide reported λex.
1. O=c1[nH]c(=S)n(CCOCCNc2ccc([N+](=O)[O-])c3nonc23)c2nc[nH]c12
2. CN(C)S(=O)(=O)c1ccc(NCCn2c(=S)[nH]c(=O)c3[nH]cnc32)c2nonc12

Marked response:
488 nm
435 nm

src = paper PMC11557929
